TESTED_ON: Polyunsaturated fatty acid 5-lipoxygenase (Rattus norvegicus)
Sequence (P12527 whole entry): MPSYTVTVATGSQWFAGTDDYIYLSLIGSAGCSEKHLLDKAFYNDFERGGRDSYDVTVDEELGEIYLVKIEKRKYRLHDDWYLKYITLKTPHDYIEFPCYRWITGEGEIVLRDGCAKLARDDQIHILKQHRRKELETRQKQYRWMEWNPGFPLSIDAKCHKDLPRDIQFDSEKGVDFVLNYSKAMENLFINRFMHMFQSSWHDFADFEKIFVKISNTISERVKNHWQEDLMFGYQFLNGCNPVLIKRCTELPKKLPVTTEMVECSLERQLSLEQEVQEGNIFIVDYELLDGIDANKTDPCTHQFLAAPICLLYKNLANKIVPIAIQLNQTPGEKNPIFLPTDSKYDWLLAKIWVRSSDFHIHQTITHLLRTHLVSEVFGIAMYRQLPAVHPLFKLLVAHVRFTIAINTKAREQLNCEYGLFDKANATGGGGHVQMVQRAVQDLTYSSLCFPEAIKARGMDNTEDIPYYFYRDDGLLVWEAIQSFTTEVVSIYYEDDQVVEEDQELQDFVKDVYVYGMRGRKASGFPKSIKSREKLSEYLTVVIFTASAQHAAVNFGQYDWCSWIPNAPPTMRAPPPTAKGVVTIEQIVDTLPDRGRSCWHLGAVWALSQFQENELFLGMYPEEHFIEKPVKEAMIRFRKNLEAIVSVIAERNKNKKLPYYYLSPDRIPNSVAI
ASSAY_METHOD_TEXT: In vitro test for inhibition of 5-lipoxygenase in cell-free preparations from rat PMN leukocytes
Below, each of the molecules is paired with its reported IC50 value.

[
  {
    "MOLECULE": "CCC1Cc2c(OCc3ccc(-c4ccccc4)cn3)ccc3c2c(c(CC(C)(C)C(=O)O)n3Cc2ccc(Cl)cc2)S1 (centres undefined)",
    "TESTED_ON": "Polyunsaturated fatty acid 5-lipoxygenase (Rattus norvegicus)",
    "UNIT_NAME": "nM",
    "IC50": 130
  },
  {
    "MOLECULE": "CC1Cc2c(OCc3ccc(-c4ccccc4)cn3)ccc3c2c(c(CC(C)(C)Cc2nnn[nH]2)n3Cc2ccc(Cl)cc2)S1 (centres undefined)",
    "TESTED_ON": "Polyunsaturated fatty acid 5-lipoxygenase (Rattus norvegicus)",
    "UNIT_NAME": "nM",
    "IC50": 17
  },
  {
    "MOLECULE": "CC1Cc2c(OCc3cc4ccccc4cn3)ccc3c2c(c(CC(C)(C)C(=O)O)n3Cc2ccc(Cl)cc2)S1 (centres undefined)",
    "TESTED_ON": "Polyunsaturated fatty acid 5-lipoxygenase (Rattus norvegicus)",
    "UNIT_NAME": "nM",
    "IC50": 400
  },
  {
    "MOLECULE": "CC1Cc2c(SCc3ccc(-c4ccccc4)cn3)ccc3c2c(c(CC(C)(C)Cc2nnn[nH]2)n3Cc2ccc(Cl)cc2)S1 (centres undefined)",
    "TESTED_ON": "Polyunsaturated fatty acid 5-lipoxygenase (Rattus norvegicus)",
    "UNIT_NAME": "nM",
    "IC50": 120
  }
]

###

ASSAY_METHOD_TEXT: Maximum time taken for compound to reach peak concentration in rat plasma; value ranges from 1-2 hrs
Type: ADME, organism-based
MEASUREMENT_TYPE: Tmax (h)

[
  {
    "COMPOUND": "CC1Cc2c(CCc3ccc(-c4ccccc4)cn3)ccc3c2c(c(CC(C)(C)Cc2nnn[nH]2)n3Cc2ccc(Cl)cc2)S1 (stereo unspecified)",
    "UNIT_NAME": "h",
    "DATA_VALUE": 1
  }
]

###

TESTED_ON: Polyunsaturated fatty acid 5-lipoxygenase (Homo sapiens)
Sequence (P09917 whole entry): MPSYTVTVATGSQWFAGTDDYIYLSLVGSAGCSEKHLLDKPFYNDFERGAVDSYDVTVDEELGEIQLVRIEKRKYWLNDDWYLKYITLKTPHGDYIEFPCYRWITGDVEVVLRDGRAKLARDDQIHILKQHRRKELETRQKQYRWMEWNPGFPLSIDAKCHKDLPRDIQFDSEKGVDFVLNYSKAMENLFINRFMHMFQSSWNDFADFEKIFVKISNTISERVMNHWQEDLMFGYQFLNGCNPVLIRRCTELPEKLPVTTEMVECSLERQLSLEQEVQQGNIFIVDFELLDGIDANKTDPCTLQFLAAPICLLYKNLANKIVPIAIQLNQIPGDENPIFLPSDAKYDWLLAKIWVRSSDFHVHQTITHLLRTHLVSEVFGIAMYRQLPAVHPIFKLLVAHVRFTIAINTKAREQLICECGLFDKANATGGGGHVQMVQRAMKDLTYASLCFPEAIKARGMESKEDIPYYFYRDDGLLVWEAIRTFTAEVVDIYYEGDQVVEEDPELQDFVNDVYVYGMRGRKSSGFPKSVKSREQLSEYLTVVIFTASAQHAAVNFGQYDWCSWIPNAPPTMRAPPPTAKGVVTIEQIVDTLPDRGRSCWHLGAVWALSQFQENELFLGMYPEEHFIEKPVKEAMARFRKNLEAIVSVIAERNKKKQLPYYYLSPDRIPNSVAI
ASSAY_METHOD_TEXT: Tested for inhibition of 5-HPETE production by human 5-LO
pIC50: −log10 of the molar value.
MEASUREMENT_TYPE: pIC50

[
  {
    "COMPOUND": "CC1Cc2c(OCc3ccc(-c4ccccc4)cn3)ccc3c2c(c(CC(C)(C)Cc2nnn[nH]2)n3Cc2ccc(Cl)cc2)S1 (stereo unspecified)",
    "DATA_VALUE": 7.12
  }
]
